System: Corynebacterium xerosis
Assay Details: Minimum Inhibitory Concentration (MIC) growth inhibition test and Kull Synergy Index
Format: cell-based
Experimental Setup: Corynebacterium xerosis; Table 4, single substances and mixtures with further cooling agents; read-out: MIC (ppm) Corynebacterium xerosis (converted)
Metric: MIC (µg/mL)

CC1CCC(C(C)C)C(OCC(O)CO)C1 (stereo not drawn) [3-((−)-Menthoxy)propane-1,2-diol] :: 500

A = CCCCC(O)C(C)O (stereo not shown)
B = CCCCCCC(O)C(C)O (stereo not shown)
C = CC1CCC(C(C)C)C(O)C1 (stereo not shown)
Form: Sort by [MIC] Order [ ascending ] Form field (ranking): labels in requested order.
C, B, A
(C: 1000 µg/mL, B: 2500 µg/mL, A: 12500 µg/mL)
